biological target: full-length human GLP-1R with an N-terminal FLAG tag, overexpressed on HEK-293T cells (human, UniProt P43220 24-463); experiment: cell-based or functional assay
Starred links: 1 amine or outer side, 2 acyl side, 3 side chain; linkers in the order of their positions; H or OH if unused. Non-standard residues stand in square brackets, D forms with d. Groups on a side chain read outwards from the residue. *: point of attachment. C15 diacid = O=C(O)CCCCCCCCCCCCCC(=O)*; γGlu = O=C(O)[C@H](CCC(=O)[*:2])N[*:1]; AEEA = NCCOCCOCC(=O)O; Aib = CC(C)(N)C(=O)O
quantity: Human GLP1R cAMP HEK293T EC50

binder	Human GLP1R cAMP HEK293T EC50
Me-Y[Aib]EGTFISDYSIALDR[Aib]AQ[Aib]K([2OEG-C15 diacid])FVNWLLAQKG-OH [Compound 218]	89.1 nM
Me-YGEGTFISDYSIALDR[Aib]AQ[Aib]K([2OEG-γGlu-γGlu-C15 diacid])FVNWLLAQKG-OH [Compound 206]	145 nM
Me-Y[Aib]EGTFISDYSI[Aib]LDR[Aib]KQ[Aib]DFVNWLLAQSPG-OH (not fully specified (residues 1, 18); printed as Me-Tyr-Aib-Glu-Gly-Thr-Phe-Ile-Ser-Asp-Tyr-Ser-Ile-Aib-Leu-Asp-Arg-Aib-Lys(R)-Gln-Aib-Asp-Phe-Val-Asn-Trp-Leu-Leu-Ala-Gln-Ser-Pro-Gly-OH) [Compound 185]	> 1000 nM
Me-Y[dA]EGTFISDYSIALDR[Aib]AQ[Aib]K([2OEG-γGlu-γGlu-C15 diacid])FVNWLLAQKG-OH [Compound 216]	34.7 nM
YXEGTFISDYSIAXDRXAQXDFVNWLLAQSG (N-terminal Me (Me-Tyr1); Aib at 2, 17, 20; Km = Lys(R) at 14, linker printed GS (read as G5 = GGGGG), lipid C15DA (C15 diacid); C-terminal OH) [Compound 172]	64.6 nM

Identify measured Human GLP1R cAMP HEK293T EC50 corresponding to Me-Y[Aib]EGTFISDYSIALDR[Aib]K([AEEA-AEEA-γGlu-γGlu-C15 diacid])Q[Aib]NFVNWLLAQRG-OH [Compound 171]
> 1000 nM

Identify measured Human GLP1R cAMP HEK293T EC50 corresponding to YXEGTFISDYSIAXDRXAQXDFVNWLLAQSPSSGAPG (N-terminal Me (Me-Tyr1); Aib at 2, 17, 20; Km = Lys(R) at 14, linker printed GS (read as G5 = GGGGG), lipid C15DA (C15 diacid); C-terminal OH) [Compound 157]
347 nM

Identify measured Human GLP1R cAMP HEK293T EC50 corresponding to Me-Y[Aib]EGTFISDYSIALDR[Aib]AQ[Aib]K([2OEG-γGlu-γGlu-C15 diacid])FVNWLLAQKPSSGAPPPS-NH2 [Compound 209]
479 nM

Identify measured Human GLP1R cAMP HEK293T EC50 corresponding to YXEGTFISDYSIXXDRXAQXDFVNWLLAQSPG (N-terminal Me (Me-Tyr1); Aib at 2, 13, 17, 20; Km = Lys(R) at 14, linker printed GS (read as G5 = GGGGG), lipid C15DA (C15 diacid); C-terminal OH) [Compound 182]
155 nM

Identify measured Human GLP1R cAMP HEK293T EC50 corresponding to YXEGTFISDYSIAXDRXAQXDFVNWLLAQSPG (N-terminal Me (Me-Tyr1); Aib at 2, 17, 20; Km = Lys(R) at 14, linker printed GS (read as G5 = GGGGG), lipid C15DA (C15 diacid); C-terminal OH) [Compound 159]
145 nM

Identify measured Human GLP1R cAMP HEK293T EC50 corresponding to Me-Y[Aib]EGTFISDYSIALDR[Aib]AQ[Aib]KFVNWLLAQKG-OH (not fully specified (residues 1, 21)) [Compound 212]
66.1 nM

Identify measured Human GLP1R cAMP HEK293T EC50 corresponding to YXEGTFISDYSIALDRXAQXDFVNWLLAQSPSSGAPPPS (N-terminal Me (Me-Tyr1); Aib at 2, 20; Km = Lys(R) at 17, linker printed GS (read as G5 = GGGGG), lipid C15DA (C15 diacid); C-terminal OH) [Compound 166]
89.1 nM

Identify measured Human GLP1R cAMP HEK293T EC50 corresponding to YXEGTFISDYSIAXDSXAQXDFVNWLLAQKG (N-terminal Me (Me-Tyr1); Aib at 2, 17, 20; Km = Lys(R) at 14, linker printed GS (read as G5 = GGGGG), lipid C15DA (C15 diacid); C-terminal OH) [Compound 177]
1000 nM

Identify measured Human GLP1R cAMP HEK293T EC50 corresponding to Me-Y[Aib]EGTFISDYSIALDR[Aib]K([AEEA-AEEA-γGlu-γGlu-C15 diacid])Q[Aib]DFVNWLLAQRG-OH [Compound 162]
513 nM

Identify measured Human GLP1R cAMP HEK293T EC50 corresponding to Me-Y[Aib]EGTFISDYSIALDR[Aib]AQ[Aib]K([G5gEgE-C15 diacid])FVNWLLAQKG-OH [Compound 215]
45.7 nM

Identify measured Human GLP1R cAMP HEK293T EC50 corresponding to YXEGTFISDYSIAXDRXAQXDFVNWLLAQXG (N-terminal Me (Me-Tyr1); Aib at 2, 17, 20; Km = Lys(R) at 14, linker printed GS (read as G5 = GGGGG), lipid C15DA (C15 diacid); K(Ac) (N-epsilon-acetyllysine) at 30; C-terminal OH) [Compound 181]
162 nM

Identify measured Human GLP1R cAMP HEK293T EC50 corresponding to Me-Y[Aib]EGTFISDYSIALDR[Aib]KQ[Aib]DFVNWLLAQSG-OH (not fully specified (residues 1, 18)) [Compound 170]
> 1000 nM

Identify measured Human GLP1R cAMP HEK293T EC50 corresponding to YXEGTFISDYSIAXDRXAQXDFVNWLLAQSPSSG (N-terminal Me (Me-Tyr1); Aib at 2, 17, 20; Km = Lys(R) at 14, linker printed GS (read as G5 = GGGGG), lipid C15DA (C15 diacid); C-terminal OH) [Compound 158]
245 nM

Identify measured Human GLP1R cAMP HEK293T EC50 corresponding to YXEGTFISDYSIALDRXAQXDFVNWLLAQRPSSGAPPPS (N-terminal Me (Me-Tyr1); Aib at 2, 20; Km = Lys(R) at 17, linker printed GS (read as G5 = GGGGG), lipid C15DA (C15 diacid); C-terminal OH) [Compound 165]
85.1 nM

Identify measured Human GLP1R cAMP HEK293T EC50 corresponding to Me-Y[Aib]EGTFISDYSIALDR[Aib]AQ[Aib]K([2OEG-γGlu-γGlu-C15 diacid])FVNWLLAQRG-OH [Compound 211]
174 nM
